assay-target: mouse 11β-HSD1 (Mus musculus)
Construct: The obtained PCR products of about 0.9 kbp, 1.2 kbp, and 0.9 kbp were subcloned into an expression vector pcDNA3.1+/Zeo; expressed in transfected cells
Sequence (P50172 whole entry): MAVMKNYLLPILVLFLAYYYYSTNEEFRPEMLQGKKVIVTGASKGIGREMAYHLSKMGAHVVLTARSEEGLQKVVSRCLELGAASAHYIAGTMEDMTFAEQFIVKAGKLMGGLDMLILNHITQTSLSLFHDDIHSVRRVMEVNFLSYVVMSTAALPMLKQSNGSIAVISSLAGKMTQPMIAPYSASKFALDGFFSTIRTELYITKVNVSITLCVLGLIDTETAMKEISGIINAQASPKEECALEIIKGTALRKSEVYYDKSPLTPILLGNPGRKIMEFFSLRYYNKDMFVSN
assay-method-text: Enzyme inhibitory activity, mouse 11β-HSD1 (lysate of stably expressing CHO-K1 cells, cortisol by competitive ELISA)
Format: biochemical
condition-label: Table 2; mouse 11β-HSD1, cell lysate, 37° C. for 1 hour; read-out: m HSD1 in vitro assay (IC50 uM)
observable: IC50 (µM)
Report only the number, with the unit µM understood.

Completed entries (count: 3):
>  <compound>
CC1(C)C(=O)N([C@H]2C3CC4CC2C[C@](O)(C4)C3)N1Cc1ccccc1Cl

>  <unit-annotation>
µM

>  <IC50>
0.47

$$$$
>  <compound>
CC1(C)C(=O)N(C2C3CC4CC(C3)CC2C4)N1Cc1cccc(F)c1 (stereo not shown)

>  <unit-annotation>
µM

>  <IC50>
0.079

$$$$
>  <compound>
CC1(C)C(=O)N(C2C3CC4CC(C3)CC2C4)N1c1csc2ccccc12 (stereo not shown)

>  <unit-annotation>
µM

>  <IC50>
0.16

$$$$

Hey, mouse 11β-HSD1 (Mus musculus) data for `CC1(C)C(=O)N([C@H]2C3CC4CC2C[C@@](O)(C4)C3)N1c1cccc2ccccc12` : IC50 came out at 0.26

Summary: Cc1ccc(CN2N(C3C4CC5CC(C4)CC3C5)C(=O)C2(C)C)c(C)c1 (stereo not shown) , mouse 11β-HSD1 (Mus musculus), IC50 = 0.069

Entry CCc1ccccc1CN1N(C2C3CC4CC(C3)CC2C4)C(=O)C1(C)C (stereo not shown) under mouse 11β-HSD1 (Mus musculus) had IC50 of 0.16

Bench note, mouse 11β-HSD1 (Mus musculus): entry Cc1ccc(C(=O)N2N(C3C4CC5CC(C4)CC3C5)C(=O)C2(C)C)c(C)c1 (stereo not shown) , its IC50 = 0.16

* * *

assay-target: human 11β-HSD1 (Homo sapiens)
Construct: The obtained PCR products of about 0.9 kbp, 1.2 kbp, and 0.9 kbp were subcloned into an expression vector pcDNA3.1+/Zeo; expressed in transfected cells
Sequence (P28845 whole entry): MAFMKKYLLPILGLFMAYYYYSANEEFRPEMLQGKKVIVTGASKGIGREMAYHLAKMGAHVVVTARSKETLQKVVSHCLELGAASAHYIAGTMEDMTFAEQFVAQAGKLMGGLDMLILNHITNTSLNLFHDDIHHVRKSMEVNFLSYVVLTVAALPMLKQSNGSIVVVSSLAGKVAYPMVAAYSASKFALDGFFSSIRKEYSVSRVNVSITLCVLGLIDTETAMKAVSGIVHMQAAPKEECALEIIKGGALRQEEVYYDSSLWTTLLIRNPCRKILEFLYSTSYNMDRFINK
assay-method-text: Enzyme inhibitory activity, human 11β-HSD1 (lysate of stably expressing HEK293 cells, cortisol by competitive ELISA)
Assay type: biochemical
condition-label: Table 1; human 11β-HSD1, cell lysate, 37° C. for 1 hour; read-out: h HSD1 in vitro assay (IC50 uM)
Criterion: IC50 strictly under 0.09 µM. Met: T. Not met: F.

Use the examples below as a reference point.
>  <molecule>
CC1(C)C(=O)N([C@H]2C3CC4CC2C[C@@](Cl)(C4)C3)N1c1cccc2ccccc12

>  <assay-target>
human 11β-HSD1 (Homo sapiens)

>  <group-label>
F

$$$$
>  <molecule>
CC1(C)C(=O)N([C@H]2C3CC4CC2C[C@@](O)(C4)C3)N1c1ccc(F)c2ccccc12

>  <assay-target>
human 11β-HSD1 (Homo sapiens)

>  <group-label>
T

$$$$

Q: Given the entry `COCOc1ccccc1N1N([C@H]2C3CC4CC2C[C@](Cl)(C4)C3)C(=O)C1(C)C` , would its reported IC50 be below 0.09 µM?
Ans: T

Q: Confirm or reject: IC50 of CC1(C)C(=O)N(C2C3CC4CC(C3)CC2C4)N1C(=O)c1cccc(Cl)c1 (centres unmarked) lies strictly below 0.09 µM
Ans: F

Q: Check if IC50 falls below 0.09 µM for CC1(C)C(=O)N(C2C3CC4CC(C3)CC2C4)N1C(=O)c1ccccc1Br (centres unmarked) .
Ans: F

Q: I'd appreciate it if you could check whether CC1(C)C(=O)N(C2C3CC4CC(C3)CC2C4)N1Cc1cc(F)ccc1Cl (centres unmarked) has IC50 smaller than 0.09 µM.
Ans: T

Q: Decide: IC50 of `CC1(C)C(=O)N([C@H]2C3CC4CC2C[C@@](O)(C4)C3)N1c1cccc2ccccc12` strictly below 0.09 µM?
Ans: T
